Exercise: state measured GI50 for each of the molecules provided.
Tested on: HCT-116
Assay: NCI tumour cell line growth inhibition, 48 h
The source made the active and inactive calls. No stated cut-off is given here; in the data, active = GI50 up to about 1.1 µM and inactive = higher.

Query block: Field request: GI50 | item: COc1ccc(S(=O)(=O)N2C(=O)CCC2C(=O)NN)cc1 (stereo not given)
Result block: > 100 µM (inactive)

Query block: Let us now turn to O=C1C=C(NCCOCCO)C(=O)c2c(O)ccc(O)c21
Result block: 22.5 µM (inactive)

Query block: Let us now turn to CCCCC(=O)NC1(c2cc3ccccc3s2)CCCCC1
Result block: > 100 µM (inactive)

Query block: Let us now turn to CSc1nc(NC2OC(CO)C(O)C(O)C2O)c(N)c(=O)n1C (stereo not given)
Result block: > 100 µM (inactive)

Query block: Let us now turn to c1ccc(CSCCc2ccncc2)cc1
Result block: > 100 µM (inactive)

* * *

Tested on: CAKI-1
Experiment: NCI tumour cell line growth inhibition, 48 h
The source made the active and inactive calls. Cut-off read from the data, not from the text of the source: active = GI50 up to about 1.1 µM and inactive = higher. Where a SMILES comes first, the peptide text is derived from it. The star is where a group is joined. Boc = CC(C)(C)OC(=O)*; Bn = c1ccc(C*)cc1
Outcome field: choose from active, inactive

Query block: Entry O[C@H]1[C@H]2c3cc4c(cc3CN3CCC(=C[C@@H]1O)[C@H]23)OCO4 : call = ?
Result block: inactive

Query block: Let us now turn to N#Cc1ccc(OCc2ccc3nc(-c4ccccc4)c(Cl)nc3c2)cc1
Result block: inactive

Query block: Let us now turn to Cc1ccc(S(=O)(=O)Nc2ccccc2C(C)(C)C)cc1
Result block: inactive

Query block: Let us now turn to Cc1ccc2cccc(OC(=O)c3cc4c(cc3Cl)Sc3nccn3S4(=O)=O)c2n1
Result block: inactive

Query block: Let us now turn to COc1ccc2c(=O)cc(-c3ccc(OC)c(OC)c3OC)oc2c1
Result block: inactive

Query block: Let us now turn to CCCCCOC(=O)C(=O)Nc1[nH]nnc1C(N)=O
Result block: inactive

Query block: Let us now turn to Cc1ccc(S(=O)(=O)Nc2cc(O)nc3c2CCC3)cc1
Result block: inactive

Query block: Let us now turn to O=S1(=O)CCN(Cc2ccccc2)/C1=N\S(=O)(=O)c1ccc(Cl)cc1
Result block: inactive

Query block: Let us now turn to CC(C)(C)c1cc(C2NC(=O)NC2=O)cc(C(C)(C)C)c1O (stereo unspecified)
Result block: inactive

Query block: Let us now turn to CC(C)(Cl)C(Br)CCC(Br)(CCl)C(Cl)CBr (stereo unspecified)
Result block: inactive

Query block: Let us now turn to CCC1(CCSC(=N)N)C(=O)NC(=O)NC1=O
Result block: inactive

Query block: Let us now turn to Oc1ccc([Te]CCNCC[Te]c2ccc(O)cc2)cc1
Result block: inactive

Query block: Let us now turn to O=C(Nc1ccc(F)cc1)C(=O)C(C1OC(=O)c2ccccc21)[N+](=O)[O-] (stereo unspecified)
Result block: inactive

Query block: Let us now turn to COC(=O)C1C(OC(=O)C(Cl)(c2ccccc2)c2ccccc2)CC2CCC1N2C (stereo unspecified)
Result block: inactive

Query block: Let us now turn to Cc1nc2c(nc1C)C(=O)c1cc(O)ccc1C2=O
Result block: inactive

Query block: Let us now turn to COC(=O)C(CC(C)C)NC(=O)CNC(=O)C(Cc1ccc(OCc2ccccc2)cc1)NC(=O)C(COCc1ccccc1)NC(=O)OC(C)(C)C (stereo unspecified) (Boc-S(Bn)Y(Bn)GL-OMe; configuration not given here)
Result block: inactive

Query block: Let us now turn to CCOC(=O)Oc1ccc2c(c1)c(=O)c1c(NCCCN(CC)CC)ccc3nnn2c31
Result block: active

Query block: Let us now turn to COc1c2c3c4c(c(OC)c(=O)c5c(O)cc(OC)c(c6c(OC)cc(O)c(c1=O)c63)c54)C(C(C)O)C2C(C)O (stereo unspecified)
Result block: active

Query block: Let us now turn to Cc1nc(-n2nc(-c3ccccc3)cc2-c2ccccc2)sc1C(=O)CC(=O)C(=O)Nc1ccc(O)cc1
Result block: inactive

Query block: Let us now turn to [N-]=[N+]=Nc1c([N+](=O)[O-])c(=O)n2c3c(cccc13)CCC2
Result block: inactive

Query block: Let us now turn to Oc1ccc2ccccc2c1OCc1nnc(CCCCCCCCc2nnc(COc3c(O)ccc4ccccc34)n2Nc2ccccc2)n1Nc1ccccc1
Result block: inactive

Query block: Let us now turn to CSC1(C(=O)O)C2CCC3C2CCC31 (stereo unspecified)
Result block: inactive

Query block: Let us now turn to CC(=O)c1cccc(NC(=O)C(=O)C(c2cnc3ccc([N+](=O)[O-])cc3n2)[N+](=O)[O-])c1 (stereo unspecified)
Result block: inactive

Query block: Let us now turn to CC(=O)O[C@H]1CC[C@@]2(C)C(=CC[C@H]3[C@@H]4C[C@H](N5CCN(C)CC5)[C@H](OC(C)=O)[C@@]4(C)CC[C@@H]32)C1
Result block: inactive

Query block: Let us now turn to CSc1ncc2c(n1)-c1ccccc1OC2NC1CC1 (stereo unspecified)
Result block: inactive

Query block: Let us now turn to COC(=O)CC(SCCO)SCCO
Result block: inactive

Query block: Let us now turn to CNC(=S)N/N=C(/C)CCC/C(C)=N/NC(=S)NC
Result block: inactive

Query block: Let us now turn to COC(=O)/C=C(/OC)[C@H](C)[C@H](/C=C/c1csc(-c2csc(C(C)C)n2)n1)OC
Result block: inactive

Query block: Let us now turn to COCn1cnc2c(=O)nc(SC)n(-c3ccccc3)c21
Result block: inactive

Query block: Let us now turn to NC(=O)c1ncn(C2CCC(CP(=O)(O)O)C2)c1N (stereo unspecified)
Result block: inactive

Query block: Let us now turn to O=c1[nH]n(Cc2ccccc2Cl)c2ccccc12
Result block: inactive

Query block: Let us now turn to C1=CC2C(C3CN(c4ccccc4)N=C13)C1C3C4C=CC21C=CC43 (stereo unspecified)
Result block: inactive

Query block: Let us now turn to O=C(Cn1ccc(=O)[nH]c1=O)Nc1ccc(C(=O)O)c(O)c1
Result block: inactive

Query block: Let us now turn to Cc1ccc(-c2c(C#N)c(S)n(NS(=O)(=O)c3ccccc3)c(=O)c2C#N)cc1
Result block: inactive

Query block: Let us now turn to O=c1[nH]c(=O)n(C2CC(O)C(CO)O2)c2nc3ccc4ccccc4c3nc12 (stereo unspecified)
Result block: inactive

Query block: Let us now turn to COc1cc(Cn2c3c(c4c(CN(C)C)c(O)ccc42)C(=O)c2ccccc2C3=O)cc(OC)c1
Result block: inactive

* * *

System: PC-3
Experiment: NCI tumour cell line growth inhibition, 48 h
The source made the active and inactive calls. Cut-off read from the data, not from the text of the source: active = GI50 up to about 1.1 µM and inactive = higher. Where a SMILES comes first, the peptide text is derived from it. [ ]: non-standard residue; d: D form. The star is where a group is joined. Bn2Val = CC(C)[C@@H](C(=O)*)N(Cc1ccccc1)Cc1ccccc1; NHPiperonyl = c1cc2c(cc1CN*)OCO2; NMeV = CN[C@H](C(=O)O)C(C)C; dNMeA = CN[C@H](C)C(=O)O
Outcome field: choose from label 1 for active, label 0 for inactive

Query block: Entry O=C(N/N=C\c1c(O)ccc2ccccc12)c1ccncc1 : call = ?
Result block: label 1

Query block: Let us now turn to COc1ccccc1N(CN1C(=O)CCC1C(=O)O)C(C)=O (stereo not drawn)
Result block: label 0

Query block: Let us now turn to CC(C)[C@H](NC(=O)[C@H](C(C)C)N(Cc1ccccc1)Cc1ccccc1)C(=O)N(C)[C@H](C(=O)N1CCC[C@H]1C(=O)N(C)[C@H](C)C(=O)NCc1ccc2c(c1)OCO2)C(C)C (Bn2Val-V[NMeV]P[dNMeA]-NHPiperonyl)
Result block: label 0

Query block: Let us now turn to N=C(N)NS(=O)(=O)c1ccc(NC(=O)c2cccc3c(NNc4ccc(C(=O)O)cc4)c4ccccc4nc23)cc1
Result block: label 0

Query block: Let us now turn to COc1ccc2c(c1)CCN1CCc3ccccc3CC21 (stereo not drawn)
Result block: label 0

Query block: Let us now turn to CCn1ncc(Oc2c(Cl)cc(N)cc2Cl)c(Cl)c1=O
Result block: label 0

Query block: Let us now turn to CC(C)(C)OC(=O)N1C(c2cccnc2)=CC[C@H]2C3CC=C(c4cccnc4)[C@@]3(C)CC[C@@H]21 (stereo partly drawn)
Result block: label 0

Query block: Let us now turn to Cn1c(N/N=C/c2ccc(Cl)cc2)nc(-c2ccc(Cl)cc2)c(C#N)c1=O
Result block: label 0

* * *

System: DU-145
Assay: NCI tumour cell line growth inhibition, 48 h
The source made the active and inactive calls. Rule as the data show it: active = GI50 up to about 1.1 µM and inactive = higher.
Exercise: state measured GI50 for each of the compounds provided.

Query block: Field request: GI50 | item: Cc1cn(C2CCC(CO)(CF)O2)c(=O)[nH]c1=O (stereo not drawn)
Result block: > 100 µM (inactive)

Query block: Let us now turn to CC(C)(C)c1cc(C2NC(=O)NC2=O)cc(C(C)(C)C)c1O (stereo not drawn)
Result block: > 100 µM (inactive)

Query block: Let us now turn to CCCCCCCCCCCCCCCCP(=O)(O)OCC(N)C(=O)O (stereo not drawn)
Result block: > 100 µM (inactive)

Query block: Let us now turn to CC(C)c1ccccc1SC1CC(=O)CC(Sc2ccccc2C(C)C)C12O[C@H](c1ccccc1)[C@@H](c1ccccc1)O2 (stereo partly drawn)
Result block: 76.2 µM (inactive)

Query block: Let us now turn to CC1(C)OC2COC(c3n[nH]c4c(=O)[nH]c(=O)[nH]c34)C2O1 (stereo not drawn)
Result block: > 100 µM (inactive)

Query block: Let us now turn to O=C1c2ccccc2C(=O)c2c1ccc1conc21
Result block: 2.59 µM (inactive)

Query block: Let us now turn to O=c1[nH]/c(=C/c2ccc(OCc3ccccc3)cn2)c(=O)[nH]/c1=C/c1ccccc1
Result block: 0.128 µM (active)

Query block: Let us now turn to C#CC1(OC(C)=O)CCC2C3CC=C4C=C(OC(C)=O)CCC4(C)C3CCC21C (stereo not drawn)
Result block: 31.1 µM (inactive)

Query block: Let us now turn to C[N+](C)([O-])CCCNc1ccnc2cccc([N+](=O)[O-])c12
Result block: 20.9 µM (inactive)

Query block: Let us now turn to O=C1Cc2c([nH]c3c(Br)cccc23)-c2ccccc2N1
Result block: > 100 µM (inactive)

Query block: Let us now turn to Cc1nn(-c2ccccc2)c2c1C(c1ccc(Cl)cc1)NC(=S)N2 (stereo not drawn)
Result block: 88.9 µM (inactive)

Query block: Let us now turn to COc1c2c3c4c(c(OC)c(=O)c5c(O)cc(OC)c(c6c(OC)cc(O)c(c1=O)c63)c54)C(C(C)O)C2C(C)O (stereo not drawn)
Result block: 2.43 µM (inactive)

Query block: Let us now turn to CNC(=S)N/N=C(/C)CCC/C(C)=N/NC(=S)NC
Result block: > 68.5 µM (inactive)
